Tested on: OVCAR 3 cells
run description: Cancer cell line proliferation assay, ATP-based cell viability (Cell Titre Glow), OVCAR 3 (CCNE1-amplified)
details: KYSE30 (normal CCNE1) GI50 vs. OVCAR 3 (CCNE1-amplified) GI50
metric: Selectivity ratio KYSE30 Gl50 vs. OVCAR3 Gl50

# compound, result
records = [
    ("Cc1cn(CC2CCOC2)nc1Nc1ncc(C(=O)Nc2c(C)ccc(O)c2C)s1 (centres unmarked)", "Y (>20 fold)"),
    ("Cc1cn(CC(=O)N2CCC2C)nc1Nc1ncc(C(=O)Nc2c(C)ccc(O)c2C)s1 (centres unmarked)", "Y (>20 fold)"),
    ("Cc1ccc(O)c(C)c1NC(=O)c1cnc(Nc2nn(C)cc2Cl)s1", "Y (>20 fold)"),
    ("Cc1nc(Nc2ncc(C(=O)Nc3c(C)ccc(O)c3C)s2)cc(N2CCOCC2)n1", "Y (>20 fold)"),
    ("Cc1ccc(O)c(C)c1NC(=O)c1cnc(Nc2cccc(N(C)C(=O)c3c(F)cc(F)cc3F)n2)s1", "X (3-20 fold)"),
    ("Cc1cn(-c2cc(Cl)cnc2F)nc1Nc1ncc(C(=O)Nc2c(C)ccc(O)c2C)s1", "X (3-20 fold)"),
    ("COC[C@H]1CCCN1C(=O)Cn1cc(C)c(Nc2ncc(C(=O)Nc3c(C)ccc(O)c3C)s2)n1", "Y (>20 fold)"),
    ("Cc1ccc2c(Nc3ncc(C(=O)Nc4c(C)ccc(O)c4C)s3)nn(C)c2c1", "Y (>20 fold)"),
]

###

target: WEE1 (Homo sapiens)
Construct: purchased Thermo Fisher PR7373A
Sequence (P30291 whole entry): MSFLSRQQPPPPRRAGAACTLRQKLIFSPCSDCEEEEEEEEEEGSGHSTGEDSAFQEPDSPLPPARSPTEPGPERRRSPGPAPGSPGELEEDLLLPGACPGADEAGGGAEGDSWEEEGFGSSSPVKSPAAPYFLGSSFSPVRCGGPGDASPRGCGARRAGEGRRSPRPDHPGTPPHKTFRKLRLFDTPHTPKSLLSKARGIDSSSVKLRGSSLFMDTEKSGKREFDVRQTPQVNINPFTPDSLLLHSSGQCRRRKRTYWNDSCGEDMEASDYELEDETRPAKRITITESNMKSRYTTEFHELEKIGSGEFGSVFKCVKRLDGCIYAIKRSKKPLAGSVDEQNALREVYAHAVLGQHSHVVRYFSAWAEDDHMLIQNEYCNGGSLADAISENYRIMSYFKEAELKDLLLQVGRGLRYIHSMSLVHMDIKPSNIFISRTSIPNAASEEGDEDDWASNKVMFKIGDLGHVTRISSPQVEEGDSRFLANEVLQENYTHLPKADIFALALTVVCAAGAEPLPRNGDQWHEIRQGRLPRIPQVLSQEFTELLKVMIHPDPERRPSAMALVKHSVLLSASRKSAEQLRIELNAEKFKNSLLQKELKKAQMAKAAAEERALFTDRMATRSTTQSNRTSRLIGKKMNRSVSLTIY
run description: Selectivity versus WEE1 assay (ADP-Glo enzymatic assay)
Assay type: biochemical
details: ADP-Glo; 15 nM WEE1, 60 minutes at 26° C.; banded
Listed next: entries and their corresponding IC50.
metric: IC50

# smiles text, target, result
data = [
    ("Cc1ccc(O)c(C)c1NC(=O)c1cnc(Nc2ccn(CC(=O)N3CC4CCC(C3)N4)n2)s1", "WEE1 (Homo sapiens)", "> 11 µM"),
    ("Cc1ccc(O)c(C)c1NC(=O)c1cnc(Nc2ccn(CC(=O)N3CCN(C(=O)OC(C)(C)C)CC3)n2)s1", "WEE1 (Homo sapiens)", "> 11 µM"),
    ("Cc1ccc(O)c(C)c1NC(=O)c1cnc(Nc2cc(C)n(C)n2)s1", "WEE1 (Homo sapiens)", "1 to 11 µM"),
    ("Cc1ccc(O)c(C)c1NC(=O)c1cnc(Nc2cc3n(n2)CCN(C)C3=O)s1", "WEE1 (Homo sapiens)", "> 11 µM"),
    ("Cc1ccc(O)c(C)c1NC(=O)c1cnc(Nc2cc(C(N)=O)n(C)n2)s1", "WEE1 (Homo sapiens)", "1 to 11 µM"),
    ("Cc1ccc(O)c(C)c1NC(=O)c1cnc(Nc2cc(C(N)=O)nn2C)s1", "WEE1 (Homo sapiens)", "> 11 µM"),
    ("Cc1ccc(O)c(C)c1NC(=O)c1cnc(Nc2ccc3cc(Br)ccc3n2)s1", "WEE1 (Homo sapiens)", "> 11 µM"),
    ("Cc1nc(Nc2ncc(C(=O)Nc3c(C)ccc(O)c3C)s2)cc(N2CCN(CCO)CC2)n1", "WEE1 (Homo sapiens)", "0.05 to 1 µM"),
]

###

target: Cellular PKMYT1 Biomarker CDK1 pT14 (Homo sapiens)
Construct: read-out CDK1 phospho-T14 immunoblot
Sequence (Q99640 1-499): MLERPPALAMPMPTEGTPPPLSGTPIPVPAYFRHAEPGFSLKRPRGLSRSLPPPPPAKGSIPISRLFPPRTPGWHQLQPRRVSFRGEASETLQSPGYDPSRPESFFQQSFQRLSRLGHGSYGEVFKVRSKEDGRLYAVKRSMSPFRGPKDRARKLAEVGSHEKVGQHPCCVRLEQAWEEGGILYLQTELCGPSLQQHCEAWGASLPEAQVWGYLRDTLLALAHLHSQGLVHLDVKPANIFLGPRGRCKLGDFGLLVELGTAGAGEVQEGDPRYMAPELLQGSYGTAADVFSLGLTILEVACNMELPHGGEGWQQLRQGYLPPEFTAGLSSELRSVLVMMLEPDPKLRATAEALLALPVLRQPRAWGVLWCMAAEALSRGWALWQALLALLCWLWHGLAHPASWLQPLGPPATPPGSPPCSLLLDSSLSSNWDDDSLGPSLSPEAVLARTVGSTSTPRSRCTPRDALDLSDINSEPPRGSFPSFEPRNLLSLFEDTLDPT
run description: Inhibition of cellular PKMYT1 biomarker CDK1 pT14 in OVCAR 3 cells (immunoblot)
details: 20 hours incubation

# compound, target, IC50
rows = [
    ("Cc1cn(CC(=O)N2CCCC2)nc1Nc1ncc(C(=O)Nc2c(C)cc(Cl)c(O)c2C)s1", "Cellular PKMYT1 Biomarker CDK1 pT14 (Homo sapiens)", "100 to 1000 nM"),
    ("Cc1ccc(O)c(C)c1NC(=O)c1cnc(Nc2cc(C(F)(F)F)n(C)n2)s1", "Cellular PKMYT1 Biomarker CDK1 pT14 (Homo sapiens)", "100 to 1000 nM"),
    ("Cc1cn(CC(=O)N(C)C2CCC2)nc1Nc1ncc(C(=O)Nc2c(C)ccc(O)c2C)s1", "Cellular PKMYT1 Biomarker CDK1 pT14 (Homo sapiens)", "< 100 nM"),
    ("Cc1ccc(NC(=O)C2CCOCC2)nc1Nc1ncc(C(=O)Nc2c(C)ccc(O)c2C)s1.Cl [BAA-331, hydrochloride]", "Cellular PKMYT1 Biomarker CDK1 pT14 (Homo sapiens)", "< 100 nM"),
]

###

target: Cellular PKMYT1 Biomarker CDK1 pT14 (Homo sapiens)
Construct: read-out CDK1 phospho-T14 immunoblot
Sequence (Q99640 1-499): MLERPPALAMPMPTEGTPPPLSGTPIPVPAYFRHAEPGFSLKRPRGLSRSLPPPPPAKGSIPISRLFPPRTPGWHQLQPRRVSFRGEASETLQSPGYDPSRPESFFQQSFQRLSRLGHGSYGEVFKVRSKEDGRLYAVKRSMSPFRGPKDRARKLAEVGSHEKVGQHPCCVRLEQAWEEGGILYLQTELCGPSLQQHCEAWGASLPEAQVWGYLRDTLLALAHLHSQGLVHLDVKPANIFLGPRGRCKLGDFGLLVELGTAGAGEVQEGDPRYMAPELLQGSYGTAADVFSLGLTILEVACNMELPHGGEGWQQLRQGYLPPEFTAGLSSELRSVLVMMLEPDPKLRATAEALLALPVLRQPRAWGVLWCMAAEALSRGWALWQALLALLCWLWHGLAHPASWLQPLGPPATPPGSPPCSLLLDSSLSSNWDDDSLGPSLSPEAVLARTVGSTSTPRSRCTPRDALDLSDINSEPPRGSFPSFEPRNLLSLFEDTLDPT
run description: Inhibition of cellular PKMYT1 biomarker CDK1 pT14 in OVCAR 3 cells (immunoblot)
details: 20 hours incubation

# compound, IC50
data = [
    ("CCN(CC)C(=O)Cn1cc(C)c(Nc2ncc(C(=O)Nc3c(C)ccc(O)c3C)s2)n1", "< 100 nM"),
    ("Cc1cc(Nc2ncc(C(=O)Nc3c(C)ccc(O)c3C)s2)nc(OCC(F)(F)F)n1", "< 100 nM"),
    ("Cc1cn(C(CO)C(=O)N2CCCC2)nc1Nc1ncc(C(=O)Nc2c(C)ccc(O)c2C)s1 (centres unmarked)", "< 100 nM"),
    ("Cc1ccc(O)c(C)c1NC(=O)c1cnc(Nc2ccccn2)s1", "< 100 nM"),
    ("Cc1ccc(O)c(C)c1NC(=O)c1cnc(Nc2nn(CC(F)F)cc2Br)s1", "< 100 nM"),
    ("Cc1ccc(NC(=O)c2ccc(C(F)(F)F)cc2)nc1Nc1ncc(C(=O)Nc2c(C)ccc(O)c2C)s1", "< 100 nM"),
    ("Cc1cn(C2CCC2)nc1Nc1ncc(C(=O)Nc2c(C)ccc(O)c2C)s1", "< 100 nM"),
    ("Cc1cn(CC(=O)N2CCCC2c2ccccc2)nc1Nc1ncc(C(=O)Nc2c(C)ccc(O)c2C)s1 (centres unmarked)", "< 100 nM"),
    ("Cc1cn(CCF)nc1Nc1ncc(C(=O)Nc2c(C)ccc(O)c2Br)s1", "< 100 nM"),
    ("Cc1nc(Nc2ncc(C(=O)Nc3c(C)ccc(O)c3C)s2)cc(N2CCN(CCO)CC2)n1", "100 to 1000 nM"),
    ("CCN(CCOC)C(=O)Cn1cc(C)c(Nc2ncc(C(=O)Nc3c(C)ccc(O)c3C)s2)n1", "< 100 nM"),
    ("Cc1ccc(O)c(C)c1NC(=O)c1cnc(Nc2cc(C(F)(F)F)cc(Cl)n2)s1", "100 to 1000 nM"),
    ("Cc1ccc(O)c(C)c1NC(=O)c1cnc(Nc2cccc(NC(=O)c3ccc(F)cc3)n2)s1", "< 100 nM"),
    ("Cc1ccc(O)c(C)c1NC(=O)c1cnc(Nc2nn(CCF)cc2Cl)s1", "< 100 nM"),
    ("CCn1nc(Nc2ncc(C(=O)Nc3c(C)ccc(O)c3C)s2)c2cc(F)ccc21", "< 100 nM"),
    ("Cc1ccc(O)c(C)c1NC(=O)c1cnc(Nc2nn(C)c3ccc(C(F)(F)F)cc23)s1", "< 100 nM"),
    ("Cc1cc(Nc2ncc(C(=O)Nc3c(C)ccc(O)c3C)s2)n(C2CCCC2)n1", "100 to 1000 nM"),
    ("Cc1ccc(N[S+]([O-])C(C)(C)C)nc1Nc1ncc(C(=O)Nc2c(C)ccc(O)c2C)s1 (centres unmarked)", "100 to 1000 nM"),
    ("Cc1ccc(O)c(C)c1NC(=O)c1cnc(Nc2cccc(C3CC3)n2)s1", "< 100 nM"),
    ("Cc1cn(CC#N)nc1Nc1ncc(C(=O)Nc2c(C)ccc(O)c2C)s1", "< 100 nM"),
    ("CCn1nc(Nc2ncc(C(=O)Nc3c(C)ccc(O)c3C)s2)c2ccccc21", "< 100 nM"),
    ("Cc1ccc(O)c(C)c1NC(=O)c1cnc(Nc2nn(C)c3ccccc23)s1", "< 100 nM"),
    ("Cc1cc(F)cnc1Nc1ncc(C(=O)Nc2c(C)ccc(O)c2C)s1", "100 to 1000 nM"),
    ("Cc1ccc(O)c(C)c1NC(=O)c1cnc(Nc2n[nH]cc2F)s1", "100 to 1000 nM"),
    ("Cc1ccc(O)c(C)c1NC(=O)c1cnc(Nc2nc(N3CCOCC3)ccc2Cl)s1", "< 100 nM"),
    ("Cc1ccc(O)c(C)c1NC(=O)c1cnc(Nc2cccc(N(C)C(=O)c3c(F)cc(F)cc3F)n2)s1", "< 100 nM"),
    ("Cc1cn(C2COC2)nc1Nc1ncc(C(=O)Nc2c(C)ccc(O)c2C)s1", "< 100 nM"),
    ("Cc1ccc(O)c(C)c1NC(=O)c1cnc(Nc2nn(C)cc2Br)s1", "100 to 1000 nM"),
    ("Cc1cn(CC2CCOC2)nc1Nc1ncc(C(=O)Nc2c(C)ccc(O)c2C)s1 (centres unmarked)", "< 100 nM"),
    ("CCN(CC)C(=O)Cn1cc(Cl)c(Nc2ncc(C(=O)Nc3c(C)ccc(O)c3C)s2)n1", "< 100 nM"),
    ("Cc1ccc(O)c(C)c1NC(=O)c1cnc(Nc2cccc(F)n2)s1", "< 100 nM"),
    ("Cc1cn(S(=O)(=O)C(C)C)nc1Nc1ncc(C(=O)Nc2c(C)ccc(O)c2C)s1", "< 100 nM"),
    ("Cc1ccc(O)c(C)c1NC(=O)c1cnc(Nc2ncccc2C2CC2)s1", "100 to 1000 nM"),
    ("CCN(CC)C(=O)C(CO)n1cc(C)c(Nc2ncc(C(=O)Nc3c(C)ccc(O)c3C)s2)n1 (centres unmarked)", "< 100 nM"),
    ("Cc1ccc(NC(=O)C(C)(C)C)nc1Nc1ncc(C(=O)Nc2c(C)ccc(O)c2C)s1", "< 100 nM"),
]
